- study.system: recombinant TcBD2 (Trypanosoma cruzi, UniProt A0A2V2V5V1)
- Sequence (A0A2V2V5V1 entry or part of it): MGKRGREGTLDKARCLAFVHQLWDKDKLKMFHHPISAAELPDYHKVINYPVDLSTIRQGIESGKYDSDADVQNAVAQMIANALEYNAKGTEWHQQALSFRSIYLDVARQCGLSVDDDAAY
- protocol.description: Thermal shift / differential scanning fluorimetry (DSF)
- Type: binding
- experimental.conditions: second round of experiments, six concentrations; read-out: IC50 (Figure S3, Kd calculation using DSF, second round of experiments)
pKd: −log10 of the molar value.
assay.metric: pKd

Examples from the recorded data:
compound=Cc1cc2c(NC(=O)c3ccccc3C(=O)O)cccc2nn1 measurement=5.51
compound=Cc1cc2c(NS(=O)(=O)c3c(C)noc3C)cccc2nn1 measurement=5.47
compound=Cc1cc2c(NC(=O)CC(C)(C)CC(=O)O)cccc2nn1 measurement=5.72
compound=CCn1nnc2c(N3CC[C@@H](N)C3)nc(C)nc21 measurement=5.72
compound="Cc1cc(C(=O)NC2CCc3nccn3C2)c2c(C)noc2n1 (stereo not shown)" measurement=5.67

(P) CCn1nnc2c(N3CC[C@H](N)C3)nc(C)nc21
(Q) CC(=O)Nc1nc(C)c(S(=O)(=O)Nc2cccc3nnc(C)cc23)s1
## Input # return whichever of P and Q has the smaller pKd When you have decided, please share the label of that item.
## Output Q
(Q: 5.50, P: 5.81)

----------
- study.system: recombinant TcBD2 (Trypanosoma cruzi)
- protocol.description: Thermal shift / differential scanning fluorimetry (DSF)
- Assay type: binding
- experimental.conditions: thermal shift, compounds 0.1 to 50 µM, 5 µM TcBD2; read-out: Kd ± SD
pKd: −log10 of the molar value.
assay.metric: pKd

(a) Cc1cc2c(NC(=O)c3ccccc3C(=O)O)cccc2nn1 [Compound 6]
(b) Cc1cc2c(NC(=O)CC(C)(C)CC(=O)O)cccc2nn1 [Compound 4]
## Input # return whichever of a and b has the smaller pKd When you have decided, please share the label of that item.
## Output a
(a: 5.48, b: 5.80)

(a) Cc1cc2c(NS(=O)(=O)c3c(C)noc3C)cccc2nn1 [Compound 5]
(b) CCn1nnc2c(N3CC[C@H](N)C3)nc(C)nc21 [Compound 2]
## Input # return whichever of a and b has the smaller pKd When you have decided, please share the label of that item.
## Output a

----------
- study.system: recombinant TcBD2 (Trypanosoma cruzi)
- protocol.description: Thermal shift / differential scanning fluorimetry (DSF)
- Format: binding
- experimental.conditions: thermal shift, compounds 0.1 to 50 µM, 5 µM TcBD2; read-out: Kd ± SD
assay.metric: Kd (nM)

compound=CC(=O)Nc1nc(C)c(S(=O)(=O)Nc2cccc3nnc(C)cc23)s1 units_of_measure=nM measurement=2810
compound=CCn1nnc2c(N3CC[C@@H](N)C3)nc(C)nc21 units_of_measure=nM measurement=1910
compound="Cc1cc(C(=O)NC2CCc3nccn3C2)c2c(C)noc2n1 (stereo not drawn)" units_of_measure=nM measurement=2410
